Biological target: Caspase-6 (Homo sapiens, UniProt P55212)
Sequence (P55212 whole entry): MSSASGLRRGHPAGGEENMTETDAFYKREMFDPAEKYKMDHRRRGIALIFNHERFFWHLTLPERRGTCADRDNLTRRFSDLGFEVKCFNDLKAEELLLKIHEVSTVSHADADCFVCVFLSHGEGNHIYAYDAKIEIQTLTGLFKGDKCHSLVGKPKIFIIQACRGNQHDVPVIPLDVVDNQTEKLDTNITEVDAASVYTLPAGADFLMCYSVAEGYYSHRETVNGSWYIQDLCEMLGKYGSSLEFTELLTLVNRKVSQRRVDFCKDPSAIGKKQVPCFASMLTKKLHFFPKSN
Assay: inhibition of CASP6 peptide cleavage – biochemical, VEID-R110 fluorescence, cherry-pick, dose response (AID 720632)
Calls of active or inactive are those of the source.
quantity-name: AC50

In [3]: df
Out[3]:
                              smiles_record      readout_value
0  O=C(COC(=O)c1ccc(Br)o1)Nc1ncc([N+](=O)[O-])s1    8.5 µM (active)
1     C/C(=N\Nc1ccc(C(=O)O)cc1)c1ccc(Br)cc1   7.07 µM (active)
2    CCOCCOc1cc(NCc2ccccc2)c2ncn(C(C)C)c2c1   9.77 µM (active)
3  COc1ccc(C(=O)OCC(=O)Nc2ncc([N+](=O)[O-])s2)cc1OC   4.75 µM (active)
4   COC(=O)c1ccccc1CSc1nsc(/C=C/N(C)C)c1C#N   34.5 µM (active)
5  O=S(=O)(O)c1cc(Cl)cc(N=Nc2ccc(O)cc2O)c1O   2.44 µM (active)
6  O=C(N/N=C/c1cn(Cc2cccc(F)c2)c2ccccc12)c1cc(O)cc(O)c1  0.461 µM (active)

----------
Target: Calpain-2 catalytic subunit (Sus scrofa, UniProt P43367)
Sequence (P43367 whole entry): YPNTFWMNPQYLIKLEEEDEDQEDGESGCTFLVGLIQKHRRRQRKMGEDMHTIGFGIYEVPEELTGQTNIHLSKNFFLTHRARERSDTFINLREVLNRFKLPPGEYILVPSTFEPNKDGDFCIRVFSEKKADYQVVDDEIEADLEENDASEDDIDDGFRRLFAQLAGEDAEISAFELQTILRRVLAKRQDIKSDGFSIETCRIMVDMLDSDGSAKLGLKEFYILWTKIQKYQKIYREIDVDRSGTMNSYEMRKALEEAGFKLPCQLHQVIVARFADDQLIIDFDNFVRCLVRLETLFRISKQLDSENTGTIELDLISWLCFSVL
Test: m-calpain protease blockers, concentration series – biochemical, fluorogenic peptide substrate, dose response (AID 1420)
Type: functional
// reported IC50 per item
quantity-name: IC50

In [3]: df
Out[3]:
                              smiles_record                               measured_on  quantity_name         readout_value
0            CC(C)/N=C(\S)NN=C1CCCCCCCCCCC1  Calpain-2 catalytic subunit (Sus scrofa, UniProt P43367)           IC50  1.04 µM (not active)
1  O=C1c2cccc3cccc(c23)C(=O)N1CCN1CCN(C(=S)Nc2ccc(Cl)cc2)CC1  Calpain-2 catalytic subunit (Sus scrofa, UniProt P43367)           IC50  22.7 µM (not active)
2   [O-][n+]1onc2c3cc(-c4ccccc4)[nH]c3ccc21  Calpain-2 catalytic subunit (Sus scrofa, UniProt P43367)           IC50  1.59 µM (not active)
3                 Cc1cccc(Oc2ccc(Cl)cc2N)c1  Calpain-2 catalytic subunit (Sus scrofa, UniProt P43367)           IC50  > 50 µM (not active)
4  O=C(O)c1cc(C(=O)O)cc(-c2ccc(/C=c3/sc4nc5ccccc5n4c3=O)o2)c1  Calpain-2 catalytic subunit (Sus scrofa, UniProt P43367)           IC50    22 µM (not active)
5  O=C(OCC(=O)N1c2ccccc2Sc2ccccc21)c1ccc[n+]([O-])c1  Calpain-2 catalytic subunit (Sus scrofa, UniProt P43367)           IC50  1.66 µM (not active)

----------
Molecular target: Probable nicotinate-nucleotide adenylyltransferase (Staphylococcus aureus (strain N315), UniProt P65502);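 note: confirmatory retest of primary uHTS inhibitor hits against NadD over a range of doses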
Sequence (P65502 whole entry): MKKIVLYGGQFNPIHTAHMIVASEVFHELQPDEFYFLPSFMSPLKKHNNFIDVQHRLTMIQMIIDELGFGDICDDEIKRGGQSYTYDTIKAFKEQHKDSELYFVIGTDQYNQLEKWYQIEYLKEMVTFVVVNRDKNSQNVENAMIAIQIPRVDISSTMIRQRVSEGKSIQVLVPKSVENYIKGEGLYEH
Assay type: functional, Staphylococcus aureus subsp. aureus N315
Calls of active or inactive are those of the source.
# IC50 values compiled below
quantity-name: IC50

                                   compound  quantity_name     readout_value
0  O=C(COC(=O)c1ccc(Oc2ccccc2)cc1)Nc1nnc(-c2ccccc2)o1           IC50  9.58 µM (active)
1  O=C1OC(c2ccc3ccccc3c2O)(c2ccc3ccccc3c2O)c2ccccc21           IC50  7.05 µM (active)
2  CCc1cccc2c(/C=N/NC(=O)c3cccc(S(=O)(=O)Nc4ccccc4Cl)c3)c[nH]c12           IC50  11.2 µM (active)
3  COc1ccc2ccccc2c1/C=N/NC(=O)c1nnn(-c2nonc2N)c1C(C)C           IC50    38 µM (active)
4  O=C(O)c1cccc(-n2cccc2/C=C2/NC(=O)N(c3ccc(Cl)cc3)C2=O)c1           IC50  11.1 µM (active)
5  Cc1ccc(C)c(NC(=O)C(OC(=O)c2ccc(NC(=O)CC#N)cc2)c2ccccc2)c1 (configuration not stated)           IC50  11.4 µM (active)
6  Cc1cc(N2C(=O)C(O)=C(C(=O)c3ccc(C)o3)C2c2ccc(OCc3ccccc3)cc2)no1 (configuration not stated)           IC50  8.93 µM (active)

----------
Molecular target: Sentrin-specific protease 6 (Homo sapiens);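 note: Luminescence-based dose-response confirmatory assay of SENP6 inhibition, following up an ultra-high-throughput screen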
Sequence (Q9GZR1 whole entry): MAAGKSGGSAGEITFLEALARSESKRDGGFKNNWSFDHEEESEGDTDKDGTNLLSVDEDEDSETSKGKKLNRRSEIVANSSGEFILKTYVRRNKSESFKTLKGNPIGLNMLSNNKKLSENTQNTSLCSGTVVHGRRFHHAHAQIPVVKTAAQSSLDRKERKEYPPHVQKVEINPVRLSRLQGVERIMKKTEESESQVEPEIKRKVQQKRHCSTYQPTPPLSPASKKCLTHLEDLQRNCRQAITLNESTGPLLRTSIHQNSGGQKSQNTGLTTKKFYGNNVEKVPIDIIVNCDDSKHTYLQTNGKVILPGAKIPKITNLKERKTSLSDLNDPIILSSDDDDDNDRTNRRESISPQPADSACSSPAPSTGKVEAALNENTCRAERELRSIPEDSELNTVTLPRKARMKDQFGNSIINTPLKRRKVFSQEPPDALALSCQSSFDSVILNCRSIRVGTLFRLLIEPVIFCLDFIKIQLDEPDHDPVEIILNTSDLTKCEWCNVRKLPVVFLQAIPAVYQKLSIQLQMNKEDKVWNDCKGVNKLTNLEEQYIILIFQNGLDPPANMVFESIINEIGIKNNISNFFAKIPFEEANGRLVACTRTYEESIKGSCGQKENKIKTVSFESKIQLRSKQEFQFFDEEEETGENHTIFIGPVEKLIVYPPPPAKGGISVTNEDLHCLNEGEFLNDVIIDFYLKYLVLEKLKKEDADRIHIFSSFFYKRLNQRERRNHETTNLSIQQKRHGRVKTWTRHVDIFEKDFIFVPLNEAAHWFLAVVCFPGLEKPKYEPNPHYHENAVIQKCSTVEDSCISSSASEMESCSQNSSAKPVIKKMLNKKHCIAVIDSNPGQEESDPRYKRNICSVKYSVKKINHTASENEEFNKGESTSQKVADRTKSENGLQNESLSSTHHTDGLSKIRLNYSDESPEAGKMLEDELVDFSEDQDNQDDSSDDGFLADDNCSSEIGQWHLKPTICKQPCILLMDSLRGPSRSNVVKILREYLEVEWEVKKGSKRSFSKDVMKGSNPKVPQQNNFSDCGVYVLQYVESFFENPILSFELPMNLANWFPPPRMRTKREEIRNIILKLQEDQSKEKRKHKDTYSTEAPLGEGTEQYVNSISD
Assay type: functional
Activity calls are given as the source filed them.
Classes used: label 1 for active, label 0 for inactive

>>> df
                                   compound                               measured_on  answer_label
0     COc1ccc(NC(=O)n2ncc3cc(Cl)ccc32)cc1OC  Sentrin-specific protease 6 (Homo sapiens)       label 1
1           COc1ccc(OC(=O)c2cc3ccccc3o2)cc1  Sentrin-specific protease 6 (Homo sapiens)       label 0
2            O=c1c2ccccc2nnn1COc1cccc(Cl)c1  Sentrin-specific protease 6 (Homo sapiens)       label 1
3                  Cc1cccc(N=Nc2cnc(N)s2)c1  Sentrin-specific protease 6 (Homo sapiens)       label 1
4  C/C(=N\Cc1ccco1)c1c(C)nn(-c2nc3ccccc3s2)c1O  Sentrin-specific protease 6 (Homo sapiens)       label 1
5  COc1cccc(/C=C2\CCC(C3CCCC3)C2=O)c1 (stereo not drawn)  Sentrin-specific protease 6 (Homo sapiens)       label 1
6  Cc1cccc(C(=O)Nc2cccc(C(=O)N/N=C/c3ccc4c(c3)OCO4)c2)c1  Sentrin-specific protease 6 (Homo sapiens)       label 1
7  CN(C)C(=O)COC(=O)c1ccccc1Nc1ccc(SC(F)F)cc1  Sentrin-specific protease 6 (Homo sapiens)       label 1

----------
Target: Fatty acid synthase (Homo sapiens, UniProt P49327)
Sequence (P49327 whole entry): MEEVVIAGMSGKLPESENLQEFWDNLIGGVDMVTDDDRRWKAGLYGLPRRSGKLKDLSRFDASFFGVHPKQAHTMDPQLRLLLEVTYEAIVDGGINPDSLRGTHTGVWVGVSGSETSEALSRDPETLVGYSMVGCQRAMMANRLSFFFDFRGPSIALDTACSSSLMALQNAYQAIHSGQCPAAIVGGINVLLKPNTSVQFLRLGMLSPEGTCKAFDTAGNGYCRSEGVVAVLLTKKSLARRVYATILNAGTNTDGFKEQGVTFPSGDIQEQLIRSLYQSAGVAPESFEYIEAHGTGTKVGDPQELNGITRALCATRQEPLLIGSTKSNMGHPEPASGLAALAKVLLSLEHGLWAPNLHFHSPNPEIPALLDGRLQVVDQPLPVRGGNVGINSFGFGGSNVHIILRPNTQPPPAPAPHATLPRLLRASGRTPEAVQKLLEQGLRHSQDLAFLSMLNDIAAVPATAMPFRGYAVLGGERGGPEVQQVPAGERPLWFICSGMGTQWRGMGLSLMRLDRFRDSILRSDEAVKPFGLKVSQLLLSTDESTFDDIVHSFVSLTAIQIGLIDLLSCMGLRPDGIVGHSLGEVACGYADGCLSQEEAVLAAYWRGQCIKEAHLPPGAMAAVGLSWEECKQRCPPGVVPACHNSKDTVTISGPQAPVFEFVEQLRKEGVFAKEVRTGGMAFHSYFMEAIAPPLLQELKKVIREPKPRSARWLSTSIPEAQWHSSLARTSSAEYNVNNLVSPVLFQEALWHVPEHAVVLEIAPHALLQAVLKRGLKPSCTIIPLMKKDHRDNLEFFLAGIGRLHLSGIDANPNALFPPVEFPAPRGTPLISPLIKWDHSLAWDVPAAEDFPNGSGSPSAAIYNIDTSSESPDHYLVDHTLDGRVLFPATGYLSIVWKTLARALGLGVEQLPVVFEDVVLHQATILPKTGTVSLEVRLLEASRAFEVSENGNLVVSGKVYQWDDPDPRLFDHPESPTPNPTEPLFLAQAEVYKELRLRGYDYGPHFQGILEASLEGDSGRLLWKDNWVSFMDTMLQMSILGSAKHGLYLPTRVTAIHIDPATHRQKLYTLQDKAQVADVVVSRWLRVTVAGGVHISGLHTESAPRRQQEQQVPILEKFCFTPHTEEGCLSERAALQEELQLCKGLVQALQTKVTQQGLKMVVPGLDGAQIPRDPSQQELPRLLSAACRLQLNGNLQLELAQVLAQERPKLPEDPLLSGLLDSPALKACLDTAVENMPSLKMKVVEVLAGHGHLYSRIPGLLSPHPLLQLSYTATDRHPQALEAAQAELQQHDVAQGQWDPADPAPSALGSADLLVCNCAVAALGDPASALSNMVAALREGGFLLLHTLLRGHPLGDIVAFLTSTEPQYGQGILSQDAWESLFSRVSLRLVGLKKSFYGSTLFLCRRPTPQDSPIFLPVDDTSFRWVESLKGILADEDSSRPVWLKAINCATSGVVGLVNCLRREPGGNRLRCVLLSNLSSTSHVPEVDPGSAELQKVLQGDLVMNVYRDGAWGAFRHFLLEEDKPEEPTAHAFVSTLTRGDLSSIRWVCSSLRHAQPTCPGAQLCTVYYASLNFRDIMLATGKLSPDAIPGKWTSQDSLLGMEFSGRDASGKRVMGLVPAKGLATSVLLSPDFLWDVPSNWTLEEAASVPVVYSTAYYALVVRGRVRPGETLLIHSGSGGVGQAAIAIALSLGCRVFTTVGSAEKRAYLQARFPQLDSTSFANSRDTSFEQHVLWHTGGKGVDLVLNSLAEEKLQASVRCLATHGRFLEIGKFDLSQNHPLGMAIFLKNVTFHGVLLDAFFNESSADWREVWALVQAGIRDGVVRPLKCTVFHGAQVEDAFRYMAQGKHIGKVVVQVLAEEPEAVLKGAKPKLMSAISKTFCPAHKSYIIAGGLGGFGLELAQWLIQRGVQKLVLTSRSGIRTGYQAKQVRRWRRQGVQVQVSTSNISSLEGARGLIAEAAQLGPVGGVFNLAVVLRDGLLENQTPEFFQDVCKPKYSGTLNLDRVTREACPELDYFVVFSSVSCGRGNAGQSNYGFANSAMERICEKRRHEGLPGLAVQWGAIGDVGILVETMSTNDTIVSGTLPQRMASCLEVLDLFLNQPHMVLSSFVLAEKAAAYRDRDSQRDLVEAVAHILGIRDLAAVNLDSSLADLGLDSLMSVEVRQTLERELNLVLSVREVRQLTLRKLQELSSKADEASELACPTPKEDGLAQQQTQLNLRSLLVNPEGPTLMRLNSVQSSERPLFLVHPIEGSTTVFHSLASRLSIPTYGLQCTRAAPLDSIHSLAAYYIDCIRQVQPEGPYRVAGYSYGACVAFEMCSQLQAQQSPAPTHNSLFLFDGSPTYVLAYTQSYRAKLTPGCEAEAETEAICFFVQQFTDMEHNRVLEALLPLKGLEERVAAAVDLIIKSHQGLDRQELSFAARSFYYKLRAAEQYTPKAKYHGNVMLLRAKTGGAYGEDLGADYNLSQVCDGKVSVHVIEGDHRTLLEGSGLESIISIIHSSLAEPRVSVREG
Assay: inhibition of human FAS-TE enzyme activity – biochemical, endpoint fluorescence intensity, uHTS hits, dose response (AID 624327);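 note: fluorescence from hydrolysis of an O-methyl fluorescein acyl ester substrate by the enzyme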
Type: functional
Active and inactive are the calls of the source.
Labels: active, inactive

>>> print(df.to_string())
                              smiles_record  answer_label
0  COc1ccc(OC)c(COC(=O)c2cc([N+](=O)[O-])ccc2N2CCOCC2)c1        active
1  O=C(N/C(=C\c1ccc(Br)cc1)C(=O)N1CCOCC1)c1ccc([N+](=O)[O-])cc1        active
2  CCCSc1cc(NCCOC(=O)CCC)c([N+](=O)[O-])c2nonc12        active
3  Cc1cccc2cc(/C=N/Nc3ccc(C(=O)O)cc3)c(Cl)nc12      inactive

----------
Molecular target: Corticotropin-releasing factor receptor 2/Corticotropin-releasing factor-binding protein (Homo sapiens, UniProt P24387+Q13324)
Sequence (Q13324 whole entry): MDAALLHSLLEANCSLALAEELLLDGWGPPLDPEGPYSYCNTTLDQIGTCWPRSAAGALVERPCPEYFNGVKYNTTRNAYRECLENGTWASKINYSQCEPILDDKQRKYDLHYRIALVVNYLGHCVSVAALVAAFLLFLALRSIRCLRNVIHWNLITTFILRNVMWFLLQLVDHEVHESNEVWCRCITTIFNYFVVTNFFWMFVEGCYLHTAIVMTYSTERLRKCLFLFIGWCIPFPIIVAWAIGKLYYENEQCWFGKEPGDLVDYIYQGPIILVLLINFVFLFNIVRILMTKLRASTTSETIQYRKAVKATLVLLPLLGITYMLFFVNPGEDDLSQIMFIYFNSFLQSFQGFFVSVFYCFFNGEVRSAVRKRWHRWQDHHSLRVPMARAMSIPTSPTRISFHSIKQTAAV
Sequence (P24387 whole entry): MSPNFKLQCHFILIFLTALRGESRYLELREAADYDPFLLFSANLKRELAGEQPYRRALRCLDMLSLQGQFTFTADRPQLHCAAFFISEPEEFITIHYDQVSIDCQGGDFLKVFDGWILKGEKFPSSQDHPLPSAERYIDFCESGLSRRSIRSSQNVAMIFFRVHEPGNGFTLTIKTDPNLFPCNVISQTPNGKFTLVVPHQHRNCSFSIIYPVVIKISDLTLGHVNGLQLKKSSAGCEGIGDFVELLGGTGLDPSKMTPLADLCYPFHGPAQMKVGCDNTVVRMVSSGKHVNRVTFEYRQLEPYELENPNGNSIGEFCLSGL
Test: activators of CRF receptor 2 with binding protein – uHTS hits, confirmation (AID 602473)
Type: functional
Conditions: read-out: EC50_Mean
Activity calls are given as the source filed them.
Possible outcomes: Y (active), N (inactive)

                                   compound  answer_label
0        CCCCCCc1cc2cc(C(=O)NC)c(=N)oc2cc1O             Y
1  O=C(Nc1cccc(S(=O)(=O)N2CCCCC2)c1)c1ccc(S(=O)(=O)C(F)F)cc1             N
2  COC(=O)c1cc(OC)c(OC)cc1NC(=O)C(C)Sc1ccc(C)cc1 (stereo not drawn)             N
